# fraction ligated listing for each entry below
B1: F1*; the commonest letter at each place (parent)
chain: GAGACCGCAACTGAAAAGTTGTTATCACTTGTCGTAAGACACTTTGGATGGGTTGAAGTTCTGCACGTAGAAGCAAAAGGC

Variants of: B1
Assay: fraction ligated after 30 min (ligated reads / total reads); higher = more ligase activity
Conditions: with F1*sub RNA substrate (template-directed ligation), 42 °C
Respond with the number and no other words.

Before answering, review these 3 worked examples.
{"mutantId": "G34A A48G", "fraction ligated": 0.795}
{"mutantId": "C40G T44C", "fraction ligated": 0.775}
{"mutantId": "T44C A48G", "fraction ligated": 0.821}

Incoming: Look up fraction ligated: C28T A56T
Outgoing: 0.731

Incoming: What about this variant? T45G G46A
Outgoing: 0.032

Incoming: What about this variant? T30C T35A
Outgoing: 0.796

Incoming: What about this variant? C26T C28T
Outgoing: 0.733

Incoming: What about this variant? T29A T35G
Outgoing: 0.834

Incoming: What about this variant? T25G A57T
Outgoing: 0.563

Incoming: What about this variant? C33A C40A
Outgoing: 0.853

Incoming: What about this variant? C26G T30A
Outgoing: 0.8

Source of measurements: the supplement of paper PMC6755084
